target entity: JMJD6Δ363‐403 (Homo sapiens)
Construct: made in house
protocol details: MALDI-TOF MS assay of JMJD6-catalysed lysine hydroxylation of LUC7L2 267-278 peptide
Type: biochemical
condition context: IC50, mean±SD, n=3; 10 μM JMJD6Δ363‐403, 100 μM LUC7L2 267‐278, 100 μM Fe(II), 400 μM L-sodium ascorbate, 20 μM 2OG, inhibitor 0–10 mM
measured quantity: IC50

* COc1ccccc1CCC(=O)c1c(O)n(C)c(=O)n(C)c1=O [compound 12] | 58 µM
* Cn1c(O)c(C(=O)CCc2ccccc2)c(=O)n(C)c1=O [compound 7] | 43 µM
* CCn1c(O)c(C(=O)CCC2CCCC2)c(=O)n(CC)c1=O [compound 9] | ≥ 1000 µM
* Cn1c(O)c(C(=O)CCc2ccsc2)c(=O)n(C)c1=O [compound 15] | ≥ 1000 µM
* CN(C)NC(=O)CCC(=O)O [Daminozide, reference compound] | 94 µM
* Cn1c(O)c(C(=O)CCc2cccs2)c(=O)n(C)c1=O [compound 8] | 27 µM
* O=C(CCC1CCCC1)c1c(O)n(C2CCCCC2)c(=O)n(C2CCCCC2)c1=O [compound 10] | ≥ 1000 µM
* O=C(O)CNC(=O)c1c(O)[nH]c(=O)[nH]c1=O [compound 5] | 19 µM
* Cn1c(O)c(C(=O)NCC(=O)O)c(=O)n(C)c1=O [compound 6] | 23 µM
* Cn1c(O)c(C(=O)CCC2CC2)c(=O)n(C)c1=O [compound 14] | 163 µM

====

target entity: JMJD6Δ363‐403.Zn(II).2OG complex (Homo sapiens, UniProt Q6NYC1)
Construct: made in house
protocol details: Ligand-observed CPMG-edited 1H NMR 2OG displacement assay from JMJD6Δ363‐403.Zn(II).2OG complex
Assay type: binding
condition context: 1H NMR; 60 µM EDTA-treated JMJD6, 200 µM Zn(II), 20 µM 2OG, 50 mM Tris-D11 pH 7.0, 10% D2O; mean ± SD (n=3); read-out: KD app (apparent binding constant) (converted)
measured quantity: Kd (µM)

* O=C(O)CNC(=O)c1ncc(-c2cccc(F)c2)cc1O | 3
* O=C(O)CCC(=O)O [Succinate] | 159
* O=C(O)CNC(=O)c1ncc(-c2cccc(Cl)c2)cc1O | 14
* O=C(O)c1ccnc(-c2cc(C(=O)O)ccn2)c1 [2,4 BPDCA, 2,2’‐bipyridine‐4,4’‐dicarboxylate, reference compound] | 7
* O=C(O)/C=C/C(=O)O [Fumarate] | 109
* O=C(O)c1ccnc(C(=O)O)c1 [2,4 PDCA, pyridine‐2,4‐dicarboxylate, reference compound] | 6

====

target entity: JMJD6Δ363‐403 (Homo sapiens, UniProt Q6NYC1)
Construct: made in house
protocol details: MALDI-TOF MS assay of JMJD6-catalysed lysine hydroxylation of LUC7L2 267-278 peptide
Format: biochemical
condition context: mean±SD, n=3; 10 μM JMJD6Δ363‐403, 100 μM LUC7L2 267‐278, 100 μM Fe(II), 400 μM L-sodium ascorbate, 20 μM 2OG, inhibitor 0–10 mM; read-out: IC50
Excerpt: Initially, we used the MS assay to screen a range of potential JMJD6 inhibitors, based on scaffolds identified as inhibitors of other 2OG oxygenases, grouped into: (i) TCA cycle and related acidic compounds; (ii) 2OG mimics / broad spectrum 2OG oxygenase inhibitors; (iii) PHD inhibitors in clinical use / investigation; (iv) tricarbonyl type compounds, which are known iron oxygenase inhibitors; (v) reported inhibitors of the JmjC KDMs.[23] Figure S1. Initial inhibition assays. […]
pIC50: −log10 of the molar value.
Hi all, reminder that labels come from pIC50, split as L = under 4, M = from 4 up to 5, H = 5 and over

• O=C(O)CNC(=O)c1ncc(-c2cccc(Cl)c2)cc1O [Vadadustat] = H
• CC(=O)C(=O)O [Pyruvate] = L
• O=C(O)CNC(=O)C(=O)O [NOG, N‐oxalylglycine, reference compound] = L
• O=C(O)CCC(=O)O [Succinate] = L
• O=C(O)CCC(=O)NO [compound 3] = M
• O=C(O)CC[C@@H](O)C(=O)O [D‐2HG, 2‐hydroxyglutarate] = L
• O=C(O)c1ccnc2c(O)cccc12 [compound 2] = H
• O=C(O)CC(O)C(=O)O (stereo not shown) [Malate] = L
• Cc1nc(C(=O)NCC(=O)O)c(O)c2ccc(Oc3ccccc3)cc12 [FG‐4592, reference compound] = M
